The values you see were collected from PubChem BioAssay (NCI).

For each record, write down the corresponding TGI.
- Tested on: SF-268 CNS
- Experiment: NCI tumour cell line growth inhibition, 48 h

Qu. For the compound `CC(=O)Nc1ccc(-c2nnc(SCC(=O)Nc3ccc(Cl)cc3Cl)o2)cc1` , give its measured TGI value.
Ans. > 100 µM

Qu. Identify measured TGI associated with `c1ccc(CC(Cc2ccccc2)C2=NCCCN2)cc1`
Ans. > 100 µM

Qu. Hello, please tell me recorded TGI for this one: CCOC(=O)N1CCN(P(=O)(Nc2ccc3nc(NC(=O)OC)[nH]c3c2)Oc2ccccc2)CC1 (stereo not drawn)
Ans. > 100 µM

Qu. For the compound `CC(=O)Nc1ccc(C2C(C(=O)Nc3ccccc3)=C(C)NC(C)=C2C(=O)Nc2ccccc2)cc1` , give its measured TGI value.
Ans. > 100 µM

Qu. Please report TGI for the following compound: `O=C1C(C=NC(=S)c2ccccc2)=C(O)c2ccccc21`
Ans. > 100 µM

Qu. Using known records, supply TGI for `Cc1nc2c(=O)[nH]ncc2[nH]1`
Ans. > 100 µM

Qu. Given `Cc1cc(N(CCC#N)CCC#N)ccc1/C=N/NC(=O)c1ccccc1` , respond with its TGI.
Ans. > 100 µM

Qu. Query TGI for `COc1ccc(C(=S)N(C)NC(=O)CC(=O)NN(C)C(=S)c2ccc(OC)cc2)cc1`
Ans. > 100 µM

Qu. # return recorded TGI for input CC12CCC([C@H](Nc3cc(C(F)(F)F)cc(C(F)(F)F)c3)C1=O)C2(C)C (stereo partly drawn)
Ans. > 100 µM

Qu. Query TGI for `CCNc1cnc2c(n1)c(=O)n(C)c(=O)n2C`
Ans. > 100 µM

Qu. Quickly give me recorded TGI for `O=c1oc2ccc(Cl)cc2c2ccccc12`
Ans. 50.5 µM

Qu. Return value of TGI for input COc1ccc(/C=C/C2C(C#N)=C(N)OC3=C2C(=O)CCC3)cc1 (stereo not drawn) , no commentary.
Ans. 30.5 µM

Qu. Return TGI (reported value) for this compound: `C/C(CC(=O)Nc1ccc(Cl)c(Cl)c1)=N/NC(=O)C[N+](C)(C)C`
Ans. > 100 µM
